Target: T1, CD27 expressed on the cell surface (HT1080_CD27 cells) (human, UniProt P26842 20-260); further: test concentration or dose not given here
T1 sequence (looked up): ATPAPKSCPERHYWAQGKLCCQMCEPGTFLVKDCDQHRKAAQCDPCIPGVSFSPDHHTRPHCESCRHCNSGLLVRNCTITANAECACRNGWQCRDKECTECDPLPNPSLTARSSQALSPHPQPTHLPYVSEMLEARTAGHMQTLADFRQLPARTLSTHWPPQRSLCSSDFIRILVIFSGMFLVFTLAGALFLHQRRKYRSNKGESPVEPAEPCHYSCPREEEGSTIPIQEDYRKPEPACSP
Test: cell-based or functional assay
PROPERTY LABEL: IL-8 [abs. corr.] (abs. corr.)
All answers are understood in abs. corr., so give the number only.

Some solved entries appear below for comparison.
P018.S.03.A.F04 (antibody, V domains shown, V regions on human Ig constant parts; also called AB27_55) VH: QSVEESGGRLVTPGTPLTLTCTVSGFSLSSYAMGWVRQAPGKGLQWIGILYRNDAASYANWAKGRFTISKTSTTVDLTMPSLTTEDTATYFCVRGYVNDGYYNLWGQGTLVTVSS VL: AYDMTQTPASVEVAVGGTVTIKCQASESIGYRLAWYQQKPGQPPKLLIFDASDLASGVPSRFKGSGSGKHFTLTISGVQSADAATYYCQQDYSYSITDNCFGGGTEVVVS    0.253
P018.S.01.A.D05 (antibody, V domains shown, V regions on human Ig constant parts; also called AB27_13) VH: QSLEESGGRLVTPGTPLTLTCTASGFSLSSYYMSWVRQAPGKGLEYIGGIYTGGSAYYASWARGRFTISRTSTTVDLKMTSLTIEDTATYFCARDAGDRIYTTFNLWGPGTLVTVSS VL: ALVMTQTPASVSEPVGGTVSLKCQASQSIGSDLSWYQQKSGQPPKLLIYRASKLASGVPSRFKGSGSGTEFTLTISGVQSDDAATYYCLGIDSYSSDDGIAFGGGTEVVVK    0.089
P018.S.04.A.C05 (antibody, V domains shown, V regions on human Ig constant parts; also called AB27_70) VH: QSVEESGGRLVTPGTPLTLTCTVSGFSLNYYSMAWVRQVPGEGLEWIGTINTGGGTYYASWAKGRFTISKTSTTVDLKMTSLTAADTATYFCARSDGTGITYYNLWGQGALVTVSS VL: ALVMTQTASPVSAAVGGTVTINCQASETIYSNLAWYQQKQGQPPKLLIYRASNLASGVPSRFSGSESGTQFTLTISGVQSDDAATYYCQGYYNTGITGFGGGTEVVVK    0.382
P018.S.01.A.G06 (antibody, V domains shown, V regions on human Ig constant parts; also called AB27_24) VH: QSLEESGGGLFKPTDTLTLTCTVSGIDLSRYAMGWVRQAPGKGLEYIGIISVGGGTYYANWIKGRFTISSTSTTVDLKITSPTTEDTATYFCARSPYASTSASAFNLWGPGTLVTVSS VL: AFELTQTPSSVEAAVGGTVTIKCQASQSIYSYLSWYQQKPGQPPKLLIYEASKLASGVPSRFSGSGSGTQFTLTISDLESADAATYYCQSYSNTNTNTFGGGTEVVVK    0.491

Attention now shifts to the item below.
Ask | Return reported IL-8 [abs. corr.]. Input binder: P018.S.07.A.D04 (antibody, V domains shown, V regions on human Ig constant parts; also called AB27_123) VH: QSLEESGGRLVTPGGSLTLTCTVSGIDLSSYAMGWVRQAPGKGLEWIGIISSSGSTYYASWANGRFTISKTSTTVDLKVTSPTTEDTATYFCARDGDSGRGYYFHFWGQGTLVTVSS VL: AFELTQTPASVSAAVGGTVTIKCQASEDIYSLLAWYQQKPGQPPKLLIYDASDLASGVPSRFSGSGSGTEYTLTISDLESADAAIYYCQQGYTTVTIVDNVFGGGTEVVVK
Reply | 0.449

These data points were gathered from patent US20210253725A1.
